Recorded values, source the supplement of paper PMC9694430.

Test system: LOC_OS01G10900-cb004;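 also: purified Escherichia coli-expressed rice kinase domain construct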
Assay: thermal shift delta Tm vs DMSO control; higher = stronger stabilization (binding)
Details: 12.5 µM; protein concentration 2 µM
observable: thermal shift delta Tm (°C)
Numbers only, in °C.

CN1CCC(Nc2nc(Nc3ccc(Oc4ccccc4)cc3)c3c(=O)[nH]cc(Br)c3n2)CC1    0.27
CC(C)(C)c1ccc(S(=O)(=O)/C=C/C#N)cc1    -1.97
O=C(Cc1ccc(-c2ccc(OCCN3CCOCC3)cc2)cn1)NCc1ccccc1    -0.03
Cc1cc(Nc2cc(N)ncn2)c(=O)n2c1C(=O)NC21CCCCC1    3.66
O=C1NC(=O)C(=Cc2ccc(-c3ccc(F)cc3)o2)S1 (stereo in doubt)    0.58
O=C1CCc2c(Oc3ccc4c(c3)[C@@H]3[C@H](O4)[C@H]3c3nc4cc(C(F)(F)F)ccc4[nH]3)ccnc2N1    2.3
Cn1c(=O)c(Oc2ccc(F)cc2F)cc2cnc(NC(CCO)CCO)nc21    1.21
O=C1Nc2ccc(I)cc2/C1=C/c1cc(Br)c(O)c(Br)c1    6.08

Below is a list of compounds. For each, state its recorded thermal shift delta Tm.
1. Cc1cc2c(F)c(Oc3ncnn4cc(OC[C@@H](C)O)c(C)c34)ccc2[nH]1
2. CCn1cc(-c2ccnc3[nH]c(-c4cccc(CN(C)C)c4)cc23)c(-c2ccc(NC(=O)N(C)C)cc2)n1
3. CC(C)c1cnn2c(NCc3ccccc3-n3cccn3)nc(OC3CCCNC3)nc12 (stereo not given)
4. Oc1ccc(-c2nc(-c3ccc(F)cc3)c(-c3ccncc3)[nH]2)cc1

[A]
1. 0.93
2. 1.01
3. 0.29
4. 0.58

For each of the compounds below, note its thermal shift delta Tm.
1. COC(=O)[C@]12CCC(C)(C)C[C@H]1[C@H]1C(=O)C=C3[C@@]4(C)C=C(C#N)C(=O)C(C)(C)[C@@H]4CC[C@@]3(C)[C@]1(C)CC2
2. CC1=C(C(=O)Nc2ccc3[nH]ncc3c2)C(c2ccc(F)cc2)NC(=O)N1 (stereo not given)
3. O=C(O)[C@]1(Cc2cccc(Nc3nccs3)n2)CC[C@@H](Oc2cccc(Cl)c2F)CC1
4. N#Cc1c(NC(=O)c2cccc3ccccc23)sc2c1CCCC2
5. CC(C)(C)NC(=O)c1cncn1C1CCN(c2ccc(-c3nnc(C(F)(F)F)o3)cn2)CC1
6. CC(C)N(CCC(=O)c1ccc2ccccc2c1)Cc1ccccc1
7. CN(C)C/C=C/C(=O)Nc1cc2c(Nc3ccc(F)c(Cl)c3)ncnc2cc1O[C@H]1CCOC1 [Afatinib (BIBW2992) Dimaleate]

[A]
[-14.8, 0.21, 3.48, 0.06, 0.11, 1.63, 5.05]
